# method notes: qHTS assay to identify small molecule antagonists of the vitamin D receptor (VDR) signaling pathway - cell viability counter screen (AID 743225); further: nearly all actives have a fitted effect of over 50% in size
# run parameters: VDR-bla HEK293T viability, CellTiter-Glo luminescence, 16 h; series mostly up to 61 µM
Results filed as inconclusive are left out. Activity calls are given as the source filed them. The call rests on the fitted dose curve; in most records, active means well fitted cell-killing curve with a large enough effect in the repeat runs; inconclusive means weak or mixed curves, or effect the other way; inactive means no such curve, though single readings can be large or run the other way. Where a SMILES comes first, the peptide text is derived from it.
parameter measured: viability change, negative = cytotoxic

Worked set:
compound | viability change, negative = cytotoxic
c1ccc(-c2nn[nH]n2)cc1 | inactive
CCCCCCCCCCCCCCCCCCOCCO | inactive
c1ccc2c(CC3=NCCN3)cccc2c1 | inactive
COC(=O)CCCCC(=O)O | inactive
COCCc1ccccn1 | inactive
CC(C)OC(=O)CCC(=O)OC(C)C | inactive
CO/N=C(/C(=O)N[C@@H]1C(=O)N2C(C(=O)[O-])=C(C[n+]3ccn4ncccc43)CS[C@H]12)c1nsc(N)n1 | inactive
CC(=O)N[C@@H](CO)C(=O)N[C@@H](CC(=O)O)C(=O)N[C@@H](CCCCN)C(=O)N1CCC[C@H]1C(=O)O (Ac-SDKP-OH) | inactive
COc1cc(/C=C/C(N)=O)cc(OC)c1OC | inactive
c1ccc2cnccc2c1 | inactive

Qu. Any idea what its viability change, negative = cytotoxic is? The compound is CC1(C)O[C@H]2CC(=O)OC[C@]23[C@H]2CC[C@@]4(C)[C@H](c5ccoc5)OC(=O)[C@H]5O[C@]54[C@]2(C)C(=O)C[C@@H]13
Ans. inactive

* * *

# measured on: Cytochrome P450 2C9 (Homo sapiens) (UniProt P11712)
# Sequence (P11712 whole entry, looked up): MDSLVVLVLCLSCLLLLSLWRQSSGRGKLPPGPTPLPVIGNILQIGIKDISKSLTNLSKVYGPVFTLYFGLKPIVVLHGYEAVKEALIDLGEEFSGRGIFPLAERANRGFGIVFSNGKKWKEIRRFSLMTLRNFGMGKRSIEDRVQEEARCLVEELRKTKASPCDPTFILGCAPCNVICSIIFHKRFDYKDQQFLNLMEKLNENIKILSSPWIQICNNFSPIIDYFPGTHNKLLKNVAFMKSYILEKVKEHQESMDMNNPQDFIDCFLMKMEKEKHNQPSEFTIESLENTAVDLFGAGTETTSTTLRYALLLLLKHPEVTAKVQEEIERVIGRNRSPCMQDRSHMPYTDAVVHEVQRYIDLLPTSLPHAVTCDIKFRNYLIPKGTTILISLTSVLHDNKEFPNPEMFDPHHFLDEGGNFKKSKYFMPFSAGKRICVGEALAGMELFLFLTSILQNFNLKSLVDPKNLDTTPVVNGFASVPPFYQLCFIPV
# method notes: Cytochrome P450 Family 2 Subfamily C Member 9 (CYP2C9) small molecule antagonists: luciferase reporter qHTS assay (AID 1671198); further: nearly all actives have a fitted effect of over 50% in size
# run parameters: P450-Glo CYP2C9 enzyme assay, luciferin luminescence; series mostly up to 115 µM
Results filed as inconclusive are left out. Active and inactive are the calls of the source. Calls come from the whole dose curve; as a rule, active = well fitted inhibition curve with a large enough effect in the repeat runs; inconclusive = weak or mixed curves; inactive = no such curve, though single readings can be large or run the other way.
Permitted responses: 1 (active), 0 (inactive)

Qu. // return assay outcome for O=Cc1cc2ccccc2o1
Ans. 0

Qu. // return assay outcome for Cc1c(Cl)cccc1Cl
Ans. 0

Qu. // return assay outcome for CCN(CC)CCN
Ans. 0

Qu. // return assay outcome for Cc1c(NC(=O)c2cccnc2)c(=O)n(-c2ccccc2)n1C
Ans. 0

Qu. // return assay outcome for C[C@H]1[C@@H](c2ccccc2)NC(=O)N1C
Ans. 0

Qu. // return assay outcome for O=C(O)CONC(=O)c1ccccc1
Ans. 0

Qu. // return assay outcome for Cc1ccc2c(c1)C(=O)c1ccccc1C2=O
Ans. 1

Qu. // return assay outcome for Fc1ccccc1
Ans. 0

Qu. // return assay outcome for COC(C)(OC)OC
Ans. 0

Qu. // return assay outcome for O=C1NC(c2ccccc2)(c2ccccc2)C(=O)N1COP(=O)(O)O
Ans. 0

Qu. // return assay outcome for CCCCCCCCCCCCCCC(=O)NC(CO)CCCCCCCCCCCCCC (configuration not stated)
Ans. 0

Qu. // return assay outcome for OCCN1CCOCC1
Ans. 0

Qu. // return assay outcome for Nc1nnnn1-c1ccccc1
Ans. 0

Qu. // return assay outcome for CN(C)CCN(C)CCO
Ans. 0

Qu. // return assay outcome for CCC(C)OC(C)CC (configuration not stated)
Ans. 0

Qu. // return assay outcome for COS(=O)(=O)O
Ans. 0

Qu. // return assay outcome for CC(C)NCC(O)c1ccc2ccccc2c1 (configuration not stated)
Ans. 0

Qu. // return assay outcome for CCCC(CC)c1ccccc1 (configuration not stated)
Ans. 0

Qu. // return assay outcome for COC(=O)CCCCC(CCSS/C(CCO)=C(\C)N(C=O)Cc1cnc(C)nc1N)SC(C)=O (configuration not stated)
Ans. 0

Qu. // return assay outcome for O=Cc1ccccc1Cl
Ans. 0

Qu. // return assay outcome for Cc1ccc(C(C)NC(=O)[C@@H](NC(=O)OC(C)C)C(C)C)cc1 (some centres not stated)
Ans. 1

Qu. // return assay outcome for CC(Oc1cc(Cl)ccc1Cl)C(=O)O (configuration not stated)
Ans. 1

Qu. // return assay outcome for CCCCSCCCC
Ans. 1

Qu. // return assay outcome for Cc1ccc(N)cc1S(=O)(=O)O
Ans. 1

Qu. // return assay outcome for CC(C)(CO)C(O)C(=O)NCCCO (configuration not stated)
Ans. 0

Qu. // return assay outcome for CC1CC(=O)CC(C)(C)C1 (configuration not stated)
Ans. 0

Qu. // return assay outcome for CC(C)CO
Ans. 0

Qu. // return assay outcome for CCCCCC(C)O (configuration not stated)
Ans. 0

Qu. // return assay outcome for C=CCN1C[C@H](C(=O)N(CCCN(C)C)C(=O)NCC)C[C@@H]2c3cccc4[nH]cc(c34)C[C@H]21
Ans. 0

Qu. // return assay outcome for CSc1cnccn1
Ans. 0

Qu. // return assay outcome for Cn1nnc2c(C(N)=O)ncn2c1=O
Ans. 0

Qu. // return assay outcome for O=C(O)[C@H](O)c1ccccc1
Ans. 0
